Values were extracted from paper PMC8271877.

# Tested on: P. falciparum (3D7 strain)
# experiment-description: Drug sensitivity test (SYBR Green I), P. falciparum 3D7 strain
# Type: cell-based, Plasmodium falciparum
# cond: Plasmodium falciparum, 3D7, 48 h, PYR-sensitive wild-type 3D7, 48 h, monotherapy; read-out: Absolute IC50 Value, P. falciparum (3D7 Strain)
attribute-measured: pIC50
Field pIC50 (float): negative decimal logarithm of the concentration in molar.

Qu. Consider the compound CCc1nc(N)nc(N)c1-c1ccc(Cl)cc1 and give its recorded pIC50.
Ans. 7.34
